Measured Plant response rating, Waterhemp of individual entries
# System: waterhemp (common waterhemp, Amaranthus rudis)
# assay overview: Test C preemergence, plant response rating
# Assay type: in vivo
# run parameters: Preemergence; 62 g ai/ha; scale 0 to 100
measure name: Plant response rating, Waterhemp

[[record]]
compound = "CCCCC(=O)c1c(Oc2ncc(Cl)cn2)cccc1C(F)(F)F"
numeric_value = 100

[[record]]
compound = "O=C(OCCC(F)(F)F)c1c(Br)cccc1Oc1ncc(Br)cn1"
numeric_value = 100

[[record]]
compound = "C=C(Br)COC(=O)c1c(Br)cccc1Oc1ncc(Cl)cn1"
numeric_value = 90

[[record]]
compound = "CCCC(=O)c1c(Br)cccc1Oc1ncc(Cl)cn1"
numeric_value = 98

[[record]]
compound = "N#CC(CCCC(F)(F)F)c1ccccc1Oc1ncc(Cl)cn1 (centres unmarked)"
numeric_value = 98


---

# Test system: blackgrass (Alopecurus myosuroides)
# assay overview: Test C preemergence, plant response rating
# Format: in vivo
# run parameters: Preemergence, 125 g ai/ha; scale of 0 to 100
Mark Fulfilled only when Plant response rating, Blackgrass stays strictly below 90. Values equal to the cut-off are Not fulfilled.

[[record]]
compound = "CCCC(=O)c1c(Oc2ncc(Cl)cn2)cccc1C(F)(F)F"
system_name = "blackgrass (Alopecurus myosuroides)"
class_assignment = "Not fulfilled"

[[record]]
compound = "N#CC(CCCC(F)(F)F)c1ccccc1Oc1ncc(Cl)cn1 (stereo not drawn)"
system_name = "blackgrass (Alopecurus myosuroides)"
class_assignment = "Fulfilled"

[[record]]
compound = "O=C(CCCCC(F)(F)F)c1c(Br)cccc1Oc1ncc(Cl)cn1"
system_name = "blackgrass (Alopecurus myosuroides)"
class_assignment = "Fulfilled"

[[record]]
compound = "N#Cc1cccc(Oc2ncc(Cl)cn2)c1CCCC(F)(F)F"
system_name = "blackgrass (Alopecurus myosuroides)"
class_assignment = "Not fulfilled"

[[record]]
compound = "C=C(Br)COC(=O)c1c(Br)cccc1Oc1ncc(Cl)cn1"
system_name = "blackgrass (Alopecurus myosuroides)"
class_assignment = "Fulfilled"


---

Measured Kochia plant response rating of individual entries
# System: kochia (Kochia scoparia)
# assay overview: Test C postemergence, plant response rating
# Format: in vivo
# run parameters: 62 g ai/ha, scale 0 to 100 (0 no effect, 100 complete control)
# Source text: […]
measure name: Kochia plant response rating

[[record]]
compound_string = "O=C(CCCC(F)(F)F)c1c(Br)cccc1Oc1ncc(Cl)cn1"
measure_name = "Kochia plant response rating"
numeric_value = 100

[[record]]
compound_string = "CCCC(=O)c1c(Br)cccc1Oc1ncc(Cl)cn1"
measure_name = "Kochia plant response rating"
numeric_value = 90

[[record]]
compound_string = "CCCC(=O)c1c(Oc2ncc(Cl)cn2)cccc1C(F)(F)F"
measure_name = "Kochia plant response rating"
numeric_value = 85

[[record]]
compound_string = "N#Cc1cccc(Oc2ncc(Cl)cn2)c1CCCC(F)(F)F"
measure_name = "Kochia plant response rating"
numeric_value = 100


---

# Test system: corn (Zea mays)
# assay overview: Test C preemergence, plant response rating
# Type: in vivo
# run parameters: Preemergence, 125 g ai/ha; scale of 0 to 100
Measured Plant response rating, Corn of individual entries
measure name: Plant response rating, Corn

[[record]]
compound = "N#Cc1cccc(Oc2ncc(Cl)cn2)c1C(=O)OCCC(F)(F)F [Compound 30]"
system_name = "corn (Zea mays)"
measure_name = "Plant response rating, Corn"
numeric_value = 5

[[record]]
compound = "CCCCC(=O)c1c(Oc2ncc(Cl)cn2)cccc1C(F)(F)F [Compound 130]"
system_name = "corn (Zea mays)"
measure_name = "Plant response rating, Corn"
numeric_value = 25

[[record]]
compound = "CCCC(=O)c1c(Oc2ncc(Cl)cn2)cccc1C(F)(F)F [Compound 136]"
system_name = "corn (Zea mays)"
measure_name = "Plant response rating, Corn"
numeric_value = 5

[[record]]
compound = "FC(F)(F)CCCCc1c(Br)cccc1Oc1ncc(Cl)cn1 [Compound 138]"
system_name = "corn (Zea mays)"
measure_name = "Plant response rating, Corn"
numeric_value = 5

